# Measured target: T1, human galectin-10-His (human)
# T1 construct: The last M of the tag may be Met1 of galectin-10; also called humanGal10-His; hGal10
# T1 chain: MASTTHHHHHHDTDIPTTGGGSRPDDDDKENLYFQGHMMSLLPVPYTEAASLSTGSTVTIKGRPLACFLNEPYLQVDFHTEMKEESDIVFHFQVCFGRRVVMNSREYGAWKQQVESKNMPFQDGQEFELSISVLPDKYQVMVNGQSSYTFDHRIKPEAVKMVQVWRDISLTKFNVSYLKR
# Protocol summary: SPR Biacore T3000, scFv-human Fc captured
Value type: koff (s⁻¹)

1) 11F02 scFv-human Fc (Fc fusion, also called 011F02; not shown: CH2-CH3 constant domains of human IgG1 (pUPEX50 scFv-Fc fusion vector)) scFv: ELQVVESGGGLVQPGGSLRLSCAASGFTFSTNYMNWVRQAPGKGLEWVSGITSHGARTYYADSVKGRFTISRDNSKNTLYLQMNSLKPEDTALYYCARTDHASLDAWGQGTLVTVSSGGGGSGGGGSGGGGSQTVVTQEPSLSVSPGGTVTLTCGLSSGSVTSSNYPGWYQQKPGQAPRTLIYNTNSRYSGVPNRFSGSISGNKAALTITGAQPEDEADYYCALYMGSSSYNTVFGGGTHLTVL ... 0.00203
